- procedureDetails: Inhibition of Lipoxygenase (unknown origin)
- Design: species or system Homo sapiens
reportedProperty: pIC50
Recall that pIC50 is obtained by taking minus log10 of the concentration measured in molar.

GET /values?readout=pIC50&item= Cc1nc(C)c(/C=C2\CN(C)C/C(=C\c3nc(C)c(C)nc3C)C2=O)nc1C
5.12

###

- Test system: HCT-116
- procedureDetails: Antiproliferative activity against human HCT-116 cells assessed as reduction in cell viability incubated for 72 hrs by MTT assay
- Format: functional, cell-based
- conditions: HCT-116, 72 h
reportedProperty: IC50 (µM)
Report only the number, with the unit µM understood.

Example entries begin here.
GET /values?readout=IC50&item= Cc1nc(C)c(C(=O)N2CCN(C(=O)C3=Cc4c(Br)cccc4S3(=O)=O)CC2)nc1C
6.44

GET /values?readout=IC50&item= O=[N+]([O-])c1ccc2c(c1)S(=O)(=O)C=C2
1.71

New cases:
GET /values?readout=IC50&item= Cc1nc(C)c(CN2CCN(C(=O)C3=Cc4c(Cl)cccc4S3(=O)=O)CC2)nc1C
2.67

###

- procedureDetails: Solubility in water
- Assay type: physicochemical
reportedProperty: solubility

GET /values?readout=solubility&item= C=CCC(CC=C)(OC(=O)[C@@H](Cc1ccc(OC(C)=O)c(OC(C)=O)c1)OC(=O)CN)c1nc(C)c(C)nc1C
> 0.1 µg/mL

###

- testedSystem: Acetylcholinesterase (Homo sapiens, UniProt P22303)
- Sequence (P22303 whole entry): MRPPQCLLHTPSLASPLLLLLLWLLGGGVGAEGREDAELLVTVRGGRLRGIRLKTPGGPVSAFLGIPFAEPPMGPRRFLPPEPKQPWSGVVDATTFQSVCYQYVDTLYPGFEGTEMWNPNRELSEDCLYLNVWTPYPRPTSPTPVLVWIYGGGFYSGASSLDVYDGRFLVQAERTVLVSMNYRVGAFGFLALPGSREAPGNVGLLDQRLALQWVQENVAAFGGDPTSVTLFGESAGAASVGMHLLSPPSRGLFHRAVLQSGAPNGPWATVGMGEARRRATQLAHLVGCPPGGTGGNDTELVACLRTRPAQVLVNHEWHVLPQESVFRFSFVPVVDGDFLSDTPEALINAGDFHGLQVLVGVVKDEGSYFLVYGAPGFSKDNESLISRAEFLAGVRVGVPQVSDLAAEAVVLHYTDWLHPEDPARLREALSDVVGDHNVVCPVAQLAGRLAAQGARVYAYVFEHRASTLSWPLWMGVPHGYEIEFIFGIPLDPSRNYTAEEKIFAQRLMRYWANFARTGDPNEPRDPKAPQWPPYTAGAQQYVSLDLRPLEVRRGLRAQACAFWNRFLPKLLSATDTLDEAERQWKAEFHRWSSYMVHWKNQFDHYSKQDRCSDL
- procedureDetails: Inhibition of AChE (unknown origin)
reportedProperty: pIC50
Recall that pIC50 is obtained by taking minus log10 of the concentration measured in molar.

GET /values?readout=pIC50&item= COC(=O)C1=CO[C@H](OC)[C@H]2C(CN3CCN(Cc4nc(C)c(C)nc4C)CC3)=CC[C@@H]12
6.66

###

- procedureDetails: Cytoprotective activity against H2O2-induced oxidative stress in human HBMEC-2 cells assessed as increase in cell viability incubated for 24 hrs by MTT assay
- Format: functional, cell-based
- conditions: HBMEC-2, 24 h
reportedProperty: EC50
Kindly report the value followed by its unit.

GET /values?readout=EC50&item= COc1cc(CNC(=O)c2ccc(O)c(O)c2)ccc1OCc1nc(C)c(C)nc1C
4.15 µM

###

- Test system: SH-SY5Y
- procedureDetails: Cytoprotective activity against H2O2-induced oxidative stress in human SH-SY5Y cells assessed as increase in cell viability incubated for 24 hrs by MTT assay
- Type: functional, cell-based
reportedProperty: pEC50
Recall that pEC50 is obtained by taking minus log10 of the concentration measured in molar.

GET /values?readout=pEC50&item= CC(=O)Oc1ccc(C[C@@H](OC(C)=O)C(=O)OCc2nc(C)c(C)nc2C)cc1OC(C)=O
5.59

###

- System: MDA-MB-231
- procedureDetails: Antiproliferative activity against human MDA-MB-231 cells assessed as reduction in cell viability incubated for 72 hrs by MTT assay
- Type: functional, cell-based
- conditions: MDA-MB-231, 72 h
reportedProperty: pIC50
Recall that pIC50 is obtained by taking minus log10 of the concentration measured in molar.

Example entries begin here.
GET /values?readout=pIC50&item= O=[N+]([O-])c1ccc2c(c1)S(=O)(=O)C=C2
5.41

GET /values?readout=pIC50&item= Cc1nc(C)c(C(=O)N2CCN(C(=O)C3=Cc4c(Br)cccc4S3(=O)=O)CC2)nc1C
5.31

Proceed to the following item.
GET /values?readout=pIC50&item= Cc1nc(C)c(CN2CCN(C(=O)C3=Cc4c(Cl)cccc4S3(=O)=O)CC2)nc1C
5.66
